molecular target: porcine succinate-cytochrome c reductase (SCR, the mixture of complex II and bc1) (Sus scrofa); construct: T h e S C R f r o m p o r c i n e h e a r t; from tissue; host or cells: porcine heart; assay: SCR activity, succinate-cytochrome c system (Assay 1); type: biochemical; conditions: experimental binding free energy change relative to compound 1
# label = t if ΔΔGexp < -2 kcal/mol else f

- molecule: "CO/C=C(/C(=O)OC)c1ccccc1CSc1nc2ccccc2s1"
  answer-label: "f"
- molecule: "CO/C=C(/C(=O)OC)c1ccccc1CSc1nc2ccc(F)cc2s1"
  answer-label: "f"
- molecule: "CO/C=C(/C(=O)OC)c1ccccc1CSc1nc2cc(F)ccc2s1"
  answer-label: "f"
- molecule: "COC=C(C(=O)OC)c1ccccc1CSc1nc2cc(OC)ccc2s1"
  answer-label: "f"
- molecule: "CO/N=C(/C(=O)OC)c1ccccc1CSc1nc2cc(Cl)ccc2s1"
  answer-label: "f"
- molecule: "CO/N=C(/C(=O)OC)c1ccccc1CSc1nc2ccc(Br)cc2s1"
  answer-label: "f"
- molecule: "CO/C=C(/C(=O)OC)c1ccccc1CSc1nc2cc([N+](=O)[O-])ccc2s1"
  answer-label: "t"
- molecule: "CO/C=C(/C(=O)OC)c1ccccc1CSc1nc2cc(Cl)ccc2s1"
  answer-label: "t"
- molecule: "CO/C=C(/C(=O)OC)c1ccccc1CSc1nc2ccc(C(F)(F)F)cc2s1"
  answer-label: "t"
- molecule: "CO/C=C(/C(=O)OC)c1ccccc1CSc1nc2ccc(Cl)cc2s1"
  answer-label: "f"

----------
molecular target: porcine succinate-cytochrome c reductase (SCR, the mixture of complex II and bc1) (Sus scrofa, UniProt P24964); construct: T h e S C R f r o m p o r c i n e h e a r t; from tissue; host or cells: porcine heart; test: SCR activity, succinate-cytochrome c system (Assay 1); assay type: biochemical; conditions: Table S1, inhibition constant with bc1 complex; read-out: Ki
Sequence (P24964 whole entry, one chain of several): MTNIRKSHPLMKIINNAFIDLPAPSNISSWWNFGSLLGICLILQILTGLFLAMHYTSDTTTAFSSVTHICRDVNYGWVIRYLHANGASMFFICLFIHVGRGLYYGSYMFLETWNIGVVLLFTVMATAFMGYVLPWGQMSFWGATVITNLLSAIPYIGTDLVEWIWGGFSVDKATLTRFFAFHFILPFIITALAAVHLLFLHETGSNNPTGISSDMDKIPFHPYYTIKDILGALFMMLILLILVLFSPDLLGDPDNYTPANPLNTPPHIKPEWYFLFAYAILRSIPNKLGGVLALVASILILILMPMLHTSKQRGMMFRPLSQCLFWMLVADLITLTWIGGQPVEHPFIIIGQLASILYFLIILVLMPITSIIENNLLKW
endpoint-name: log10(Ki) (log10 of the value in nM)

- molecule: "CO/N=C(/C(=O)OC)c1ccccc1CSc1nc2ccc(Cl)cc2s1"
  endpoint-name: "log10(Ki)"
  measurement: 0.97
- molecule: "CO/N=C(/C(=O)OC)c1ccccc1CSc1nc2ccc(C)cc2s1"
  endpoint-name: "log10(Ki)"
  measurement: 1.08
- molecule: "CO/C=C(/C(=O)OC)c1ccccc1CSc1nc2c(F)cccc2s1"
  endpoint-name: "log10(Ki)"
  measurement: 1.56
- molecule: "CO/N=C(/C(=O)OC)c1ccccc1CSc1nc2c(F)cccc2s1"
  endpoint-name: "log10(Ki)"
  measurement: 2.20
- molecule: "CO/C=C(/C(=O)OC)c1ccccc1CSc1nc2c(Cl)cccc2s1"
  endpoint-name: "log10(Ki)"
  measurement: 1.84
- molecule: "CO/N=C(/C(=O)OC)c1ccccc1CSc1nc2ccc([N+](=O)[O-])cc2s1"
  endpoint-name: "log10(Ki)"
  measurement: 1.44
- molecule: "CO/N=C(/C(=O)OC)c1ccccc1CSc1nc2cc(F)ccc2s1"
  endpoint-name: "log10(Ki)"
  measurement: 1.29
- molecule: "CO/N=C(/C(=O)OC)c1ccccc1CSc1nc2ccc(F)cc2s1"
  endpoint-name: "log10(Ki)"
  measurement: 1.89
- molecule: "CO/N=C(/C(=O)OC)c1ccccc1CSc1nc2c(Cl)cccc2s1"
  endpoint-name: "log10(Ki)"
  measurement: 2.06

Just for reference, paper PMC4549706 is where these values come from.
